From: patent US8822467B2

experimental-system: human CRTH2 (Homo sapiens)
Construct: expressed in transfected cells
Sequence (Q9Y5Y4 whole entry): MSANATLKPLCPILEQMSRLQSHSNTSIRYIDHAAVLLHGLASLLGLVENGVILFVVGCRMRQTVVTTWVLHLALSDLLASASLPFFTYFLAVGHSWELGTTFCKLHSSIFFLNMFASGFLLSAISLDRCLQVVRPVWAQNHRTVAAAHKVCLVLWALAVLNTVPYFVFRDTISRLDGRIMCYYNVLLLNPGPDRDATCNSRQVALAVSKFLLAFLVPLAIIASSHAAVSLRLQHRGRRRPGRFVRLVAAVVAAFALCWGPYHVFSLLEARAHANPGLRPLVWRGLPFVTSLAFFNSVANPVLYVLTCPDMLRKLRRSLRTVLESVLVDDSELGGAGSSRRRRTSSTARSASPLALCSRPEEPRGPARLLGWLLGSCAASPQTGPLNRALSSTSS
assay-explanation: [35S]GTPγS binding assay (SPA) on membranes from CHO-K1 cells stably expressing human CRTH2, stimulated with 60 nM DHK-PGD2
Type: biochemical
run-parameters: potency class symbols; Table 2; read-out: CRTH2 hGTPγS IC50
Below: a set of entries, each annotated with reported IC50.

As a guide, the following entries are already answered.
CN(Cc1ccc(OCC(=O)O)c(-c2cccc(C(F)(F)F)c2)c1)S(=O)(=O)c1ccccn1 1 to 10 µM
CN(Cc1ccc(OCC(=O)O)c(-c2ccc(F)c(S(C)(=O)=O)c2)c1)S(=O)(=O)c1ccc(F)cc1 < 0.1 µM
CNS(=O)(=O)c1cccc(-c2cc(CN(C)S(=O)(=O)c3ccc(F)c(F)c3)ccc2OCC(=O)O)c1 < 0.1 µM
CN(Cc1ccc(OCC(=O)O)c(-c2ccccc2)c1)S(=O)(=O)c1ccccc1 1 to 10 µM

--- query ---
// query Endpoint output: IC50 of Cc1nnc(-c2cccc(-c3cc(CN(C)S(=O)(=O)c4ccc(F)cc4)ccc3OCC(=O)O)c2)o1 . Value?
// result 0.1 to 1 µM
